All figures here come from patent US10988433B2.

Target: human GPR40 (Homo sapiens)
Sequence (O14842 whole entry): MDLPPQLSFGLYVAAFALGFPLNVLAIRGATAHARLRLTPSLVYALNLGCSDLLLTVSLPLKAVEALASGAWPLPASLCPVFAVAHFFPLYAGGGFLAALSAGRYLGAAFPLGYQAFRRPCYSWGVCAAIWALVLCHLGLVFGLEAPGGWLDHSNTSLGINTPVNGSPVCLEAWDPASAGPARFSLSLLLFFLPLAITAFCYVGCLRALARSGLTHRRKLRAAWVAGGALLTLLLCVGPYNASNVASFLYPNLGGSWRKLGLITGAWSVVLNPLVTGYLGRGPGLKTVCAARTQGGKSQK
Assay: GPR40 calcium flux assay, HEK293 cells stably expressing human GPR40
Conditions: transfected HEK293 cells stably expressing human GPR40, Fluo 8 dye, read-out: hGPR40 Ca2+ Assay EC50
measurement type: pEC50
pEC50 here: minus log base 10 of the concentration, concentration in moles per litre.

Prompt line: Param readout= pEC50; system= human GPR40 (Homo sapiens); entry= COc1cc(C2CCC(COc3cccc([C@@H](CC(=O)O)C4CC4)c3)C(C)C2)c(F)cn1 (stereo partly shown) ; returns value.
Response line: 8.43

Prompt line: Same question, COc1cc([C@]2(OC)CC[C@H](COc3cc([C@@H](CC(=O)O)C4CC4)ccn3)CC2)c(F)cn1 this time
Response line: 6.59

Prompt line: Please give the result for COc1cc([C@H]2CC[C@H](COc3cccc([C@@H](CC(=O)O)C4CC4)c3)CC2)c(F)cn1 too.
Response line: 9.30

Prompt line: COc1ccc(F)c([C@H]2CC[C@@H](COc3cccc([C@H](CC(=O)O)C4CC4)c3)CC2)c1 ?
Response line: 6.16

Prompt line: Please give the result for COc1ccc(Cl)c(C2CCC(COc3cccc([C@H](C4CC4)[C@@](C)(F)C(=O)O)c3)CC2)c1 (stereo partly shown) too.
Response line: 9.72

Prompt line: Please give the result for COc1ccc(C(=O)Nc2ccccn2)c(C2CCC(COc3cccc([C@H](C4CC4)C(C)(F)C(=O)O)c3)CC2)c1 (stereo partly shown) too.
Response line: 8.72

Prompt line: And for C[C@](F)(C(=O)O)[C@H](c1cccc(OC[C@H]2CC[C@H](c3cc(OC(F)(F)F)ccc3F)CC2)c1)C1CC1 ?
Response line: 7.85
